This collection of values is drawn from patent US20220204603A1.

Provide the reported Kd of each item.
- assay-system: T1, human Ang2 (construct not stated) (human, UniProt O15123 19-496, limits assumed)
- T1 construct: also called hAng2
- T1 sequence (looked up): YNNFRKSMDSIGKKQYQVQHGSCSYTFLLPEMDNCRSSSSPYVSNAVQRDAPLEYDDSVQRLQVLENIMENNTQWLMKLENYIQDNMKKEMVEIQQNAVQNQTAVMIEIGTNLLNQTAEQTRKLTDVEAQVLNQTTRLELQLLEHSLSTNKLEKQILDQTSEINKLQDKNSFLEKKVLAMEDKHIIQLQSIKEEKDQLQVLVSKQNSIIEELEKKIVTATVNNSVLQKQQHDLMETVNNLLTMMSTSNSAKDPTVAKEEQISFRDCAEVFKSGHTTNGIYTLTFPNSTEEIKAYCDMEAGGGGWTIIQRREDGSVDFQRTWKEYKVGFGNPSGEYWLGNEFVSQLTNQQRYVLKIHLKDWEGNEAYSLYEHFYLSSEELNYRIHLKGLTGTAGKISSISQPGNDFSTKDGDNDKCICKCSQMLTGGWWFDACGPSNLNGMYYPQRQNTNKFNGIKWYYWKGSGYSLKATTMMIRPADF
- measurement-description: SPR Biacore T200, antibody captured on protein A chip, Ang2 as analyte, 1:1 model
Answers are plain numbers, in nM.

Solved cases (3 shown):
binder	value-unit	Kd
No. 8 anti-Ang2 antibody (IgG) (antibody, V domains shown, IgG form: VH cloned into Invivogen pfusess-hchg1, VL into Invivogen pfuse2ss-hclk; also called 3A10) VH: QVQLVESGGGLVKPGGSLRLSCAASGFTFSSYSMNWVRQAPGKGLEWVSSISASDGATYYADSVRGRFTISRDNSRSTLYLQMNSLRAEDTAVYYCAKILAGYSGPMGGMDVWGQGTTVTVSS VL: DIQMTQSPSSLSASVGDRVTITCRASRDISNYLAWYQQKPGKAPKSLIYGASNLQSGVSSQFSGSGSGTDFTLTINSLQPEDSATYYCQQYYSYPLTFGGGTKVDIKR	nM	0.163
No. 41 anti-Ang2 antibody (IgG) (antibody, V domains shown, IgG form: VH cloned into Invivogen pfusess-hchg1, VL into Invivogen pfuse2ss-hclk; also called 2B2) VH: QVQLVESGGGLVQPGGSLRLSCEASGFAFGRYEMNWVRQAPGKGLEWIAYIDTGGGAKVYADSVKGRFTISRDDSKNSLYLQMNSLRAEDTAVYYCTTEGLMNGLHFDMWGQGTMITVSS VL: DIQMTQSPSTLSASVGDRVAITCRASQAISTWLAWYQQKPGKAPKLLIYTASTLESGVPSRFSGSGSGTDFTLTINSLQPDDFATYYCQQLNSYPYTFGGGTKVEIKR	nM	0.243
No. 3 anti-Ang2 antibody (IgG) (antibody, V domains shown, IgG form: VH cloned into Invivogen pfusess-hchg1 (heavy chain constant region), VL into Invivogen pfuse2ss-hclk (light chain constant region); Expressed in Expi293F, purified on Protein A; also called 1D10) VH: QMQLVQSGGGLVQPGRSLKLSCAASGFSFDDYAMHWVRQAPGKGLEWVATIKDDGSQTYYVDSVKGRFTISRDNAKSSLFLQMNSLRAEDTAVYYCTTEGLMNGLHFDMWGQGTMVTVSS VL: LVLTQPPSVSGAPGQGVTISCTGSSSNIGAGYDVHWYQQFPGTAPKLLISGNNNRPSGLPDRFSGSKSGTSASLAITGLQAEDEADYYCQSYDSRLGVVFGGGTKLTVLG	nM	0.127

Dear colleague, could you send me Kd for each of the items below? Thanks.
1. No. 4 anti-Ang2 antibody (IgG) (antibody, V domains shown, IgG form: VH cloned into Invivogen pfusess-hchg1, VL into Invivogen pfuse2ss-hclk; also called 2D8) VH: QVQLVESGAEVKRPGESLRISCKTSGYSFTSYWIHWVRQMPGKELEWMGSIYPGNSDTRYSPSFQGHVTISADSSSSTAYLQWSSLKASDTAMYYCTTEGLMNGLHFDMWGQGTMVTVSS VL: DIVMTQTPLSLPVTPGEPASISCRSSQSLLHSLGDNYLDWYLQKPGQSPQLLIYLGSKRAAGVPDRFSGSGSGTDFTLKISRVEAEDVGVYYCMQSLQTPPYTFGQGTKLEIKR
2. No. 46 anti-Ang2 antibody (IgG) (antibody, V domains shown, IgG form: VH cloned into Invivogen pfusess-hchg1, VL into Invivogen pfuse2ss-hclk; also called 3C6) VH: QVQLVESGGGLVQPGRSLRLSCAASGFTFDDCAMHWVRQAPGKGLEWVSGISGNSKNVAYADSVKGRFSISRDDAKNSLYLQMNSLRAEDTAVYYCARDPAYSQFDYWGQGTLITVSS VL: QSALTQPPSLSATPGQRVTISCSGSSSNVGGYPVNWYQQVPGAAPKLLMYTDYKRPSGVPDRFFGSKSGTSASLAISGLQSEDEADYYCATWDDNLNGYVFGTGTKVTVLG

Given back:
[0.217, 0.314]
